system: SF-295; assay: NCI tumour cell line growth inhibition, 48 h
The source made the active and inactive calls. Cut-off read from the data, not from the text of the source: active = GI50 up to about 1.1 µM and inactive = higher.
Each entry below carries its reported GI50.
recorded.metric: GI50

{"compound": "O=C(O)C[S+]([O-])c1ccc2c3c(cccc13)C(=O)c1ccccc1-2 (centres undefined)", "assay.result": "> 100 µM (inactive)"}
{"compound": "Cn1c(=O)cc2[nH]c3ccccc3n2c1=O", "assay.result": "> 100 µM (inactive)"}
{"compound": "O=C1C=C2CC[C@H]3[C@@H]4CC[C@H](Oc5c6ccccc6nc6ccccc56)[C@H]4CC[C@@H]3[C@H]2CC1", "assay.result": "52.4 µM (inactive)"}
{"compound": "O=S(=O)(Nc1ccccc1S(=O)(=O)c1ccccc1)c1ccccc1", "assay.result": "94.4 µM (inactive)"}
{"compound": "O=c1c2cc(-c3ccccc3)sc2nc2n1N=C(c1ccc(Cl)cc1)CS2", "assay.result": "> 100 µM (inactive)"}
{"compound": "Cc1cccc(NC(Nc2cccc(C)c2)=C(C(Cl)=C(Cl)Cl)[N+](=O)[O-])c1", "assay.result": "14 µM (inactive)"}
{"compound": "COC(=O)[C@H](CCSC)NC(=O)N[C@H](C)c1ccccc1", "assay.result": "> 100 µM (inactive)"}
{"compound": "CCCCCCCCCCCC(=O)N(CCCCCCCCCCC(=O)O)CC(O)C(O)C(OC1OC(CO)C(O)C(O)C1O)C(O)CO (centres undefined)", "assay.result": "> 100 µM (inactive)"}
{"compound": "CC/C(=C(\\c1ccccc1)c1ccc(OCC[N+](C)(C)C)cc1)c1ccccc1 [TAMOXIFEN METHYL IODIDE]", "assay.result": "16.9 µM (inactive)"}
